tgt: Protein arginine deiminase 4 (PAD4) (Homo sapiens)
Sequence (Q9UM07 whole entry): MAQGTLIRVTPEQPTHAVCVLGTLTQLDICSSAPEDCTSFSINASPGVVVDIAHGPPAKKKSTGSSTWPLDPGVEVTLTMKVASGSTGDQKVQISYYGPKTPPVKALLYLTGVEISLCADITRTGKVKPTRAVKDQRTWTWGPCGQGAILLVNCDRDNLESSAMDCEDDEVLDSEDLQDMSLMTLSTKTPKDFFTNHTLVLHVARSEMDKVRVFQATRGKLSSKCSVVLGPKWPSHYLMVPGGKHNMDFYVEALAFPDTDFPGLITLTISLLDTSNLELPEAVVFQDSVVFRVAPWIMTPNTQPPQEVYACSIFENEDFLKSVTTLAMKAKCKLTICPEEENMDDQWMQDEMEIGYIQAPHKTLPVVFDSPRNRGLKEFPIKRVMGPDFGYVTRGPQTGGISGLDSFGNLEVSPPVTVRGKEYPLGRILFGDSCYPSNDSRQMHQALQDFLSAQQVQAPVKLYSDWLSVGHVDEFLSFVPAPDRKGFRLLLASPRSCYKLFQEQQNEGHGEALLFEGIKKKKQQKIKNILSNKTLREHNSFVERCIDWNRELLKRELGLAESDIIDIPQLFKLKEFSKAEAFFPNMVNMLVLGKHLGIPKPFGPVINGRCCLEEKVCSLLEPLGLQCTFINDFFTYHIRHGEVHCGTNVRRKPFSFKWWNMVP
experiment summary: PAD4 ammonia release assay
Type: biochemical
condition details: PAD4 ammonia release assay, BAEE substrate, 60 min at RT; read-out: Average IC50 Abs
Protocol: 1) Compound preparation: The compounds were diluted to 80× final concentrations. 2) The compounds were transferred to a 384-well assay plate by Tecan. DMSO: 1.25%. […] The percent (%) inhibition at each concentration of compound was calculated based on and relative to the signal in the HPE (50 μM ref. compound) and ZPE (1.25% DMSO) wells included within each assay plate. […] The endpoint value (IC50) for the reference compound was evaluated in each experiment as a quality control measure. […]
Examples of compounds with documented IC50 follow.

Solved cases (4 shown):
compound | IC50
CCC1CNc2c(F)ccc3cc(-c4nc5cc(C(=O)N6C[C@H]7CC[C@@H]6[C@@H]7N)cc(F)c5n4C)n1c23 (stereo partly shown) [Example 131] | 100 to 500 nM
COc1cc(C(=O)N2C[C@H](N)C[C@@H](F)C2)cc2nc(-c3cc4cccc5c4n3CCN5C(=O)CO)n(C)c12 [Example 28] | 500 to 5000 nM
COc1cc(C(=O)N2C[C@H](N)C[C@@H](F)C2)cc2nc(-c3cc4cccc5c4n3CCN5C(=O)CC#N)n(C)c12 [Example 30] | > 5000 nM
Cn1c(-c2cc3c(C#N)ccc4c3n2[C@@H](C2CC2)CN4)nc2cc(C(=O)N3C[C@H]4CC[C@@H]3[C@@H]4N)cc(F)c21 [Example 120] | > 5000 nM

Query: Report IC50, nothing else, for this compound: Cn1c(-c2cc3ccc4c(c3n2CC2CC2)NCC4)nc2cc(C(=O)N3C[C@H]4CC[C@@H]3[C@@H]4N)cc(F)c21 [Example 147]
Reply: ≤ 100 nM

Query: Name the recorded IC50 of the item COc1cc(C(=O)N2C[C@H]3CC[C@@H]2[C@@H]3N)cc2nc(-c3cc4cccc5c4n3CCN5CCO)n(C)c12 [Example 11] in your answer.
Reply: 500 to 5000 nM

Query: Identify measured IC50 corresponding to CC(C)[C@H]1CNc2cccc3cc(-c4nc5cc(C(=O)N6C[C@H]7CC[C@@H]6[C@@H]7N)cc(F)c5n4C)n1c23 [Example 106]
Reply: 100 to 500 nM
